# experiment_notes: Thermal stability, TG/DTA measurement
# protocol_conditions: difference of weight reduction temperatures
// reported thermal stability higher compared to Z-DOL (Comparative Example 10C) per item
readout_name: thermal stability higher compared to Z-DOL (Comparative Example 10C)

compound: CCCCCCCCCCCCCCCCCC[n+]1ccn(CCCO)c1.O=S(=O)([N-]S(=O)(=O)C(F)(F)C(F)(F)C(F)(F)C(F)(F)F)C(F)(F)C(F)(F)C(F)(F)C(F)(F)F
value_measured: ≥ 150 °C
//
compound: CCCCCCCCCCCCCC[N+](C)(C)CCCO.O=S(=O)([N-]S(=O)(=O)C(F)(F)C(F)(F)C(F)(F)C(F)(F)F)C(F)(F)C(F)(F)C(F)(F)C(F)(F)F
value_measured: ≥ 145 °C
//
compound: CCCCCCCCCCCCCCCCCC[n+]1ccn(CCCO)c1CCCCCCCCCCCCCCCCC.O=S(=O)([N-]S(=O)(=O)C(F)(F)C(F)(F)C(F)(F)C(F)(F)F)C(F)(F)C(F)(F)C(F)(F)C(F)(F)F
value_measured: ≥ 160 °C
//
compound: CCCCCCCCCCCCCCCCCC[N+](C)(C)CCCO.O=S(=O)([N-]S(=O)(=O)C(F)(F)C(F)(F)C(F)(F)C(F)(F)F)C(F)(F)C(F)(F)C(F)(F)C(F)(F)F
value_measured: ≥ 150 °C
//
compound: CCCCCCCCCCCCCCCCCC[N+]1(CCCO)CCCC1.O=S(=O)([N-]S(=O)(=O)C(F)(F)C(F)(F)C(F)(F)C(F)(F)F)C(F)(F)C(F)(F)C(F)(F)C(F)(F)F
value_measured: ≥ 160 °C
//
compound: CCCCCCCCCCCCCCCCCCC1CCCCN2CCC[N+](CCCO)=C12.O=S(=O)([N-]S(=O)(=O)C(F)(F)C(F)(F)C(F)(F)C(F)(F)F)C(F)(F)C(F)(F)C(F)(F)C(F)(F)F (stereo not drawn)
value_measured: ≥ 160 °C

###

# experiment_notes: Thermal stability, TG/DTA measurement
# protocol_conditions: air 200 mL/min, 30° C. to 600° C., heating rate 10° C./min
// reported Weight reduction temperature 10% per item
readout_name: Weight reduction temperature 10%

molecule: CCCCCCCCCCCCCC[N+](C)(C)CCCO.O=S(=O)([N-]S(=O)(=O)C(F)(F)C(F)(F)C(F)(F)C(F)(F)F)C(F)(F)C(F)(F)C(F)(F)C(F)(F)F
value_measured: 359.0 °C

molecule: CCCCCCCCCCCCCCCCCCN.O=S(=O)(NS(=O)(=O)C(F)(F)C(F)(F)C(F)(F)C(F)(F)F)C(F)(F)C(F)(F)C(F)(F)C(F)(F)F [Comparative Example 8A, reference compound]
value_measured: 329.8 °C

molecule: CCCCCCCCCCCCCCCCCC[n+]1ccn(CCCO)c1CCCCCCCCCCCCCCCCC.O=S(=O)([N-]S(=O)(=O)C(F)(F)C(F)(F)C(F)(F)C(F)(F)F)C(F)(F)C(F)(F)C(F)(F)C(F)(F)F
value_measured: 364.3 °C

molecule: CCCCCCCCCCCCCCCCCCC1CCCCN2CCCN=C12.O=S1(=O)NS(=O)(=O)C(F)(F)C(F)(F)C1(F)F (stereo not shown) [Comparative Example 4A, reference compound]
value_measured: 384.1 °C

molecule: CCCCCCCCCCCCCCCCCCC1CCCCN2CCC[N+](CCCO)=C12.O=S(=O)([N-]S(=O)(=O)C(F)(F)C(F)(F)C(F)(F)C(F)(F)F)C(F)(F)C(F)(F)C(F)(F)C(F)(F)F (stereo not shown)
value_measured: 360.8 °C

molecule: CCCCCCCCCCCCCCCCCC[N+](C)(C)CCCO.O=S(=O)([N-]S(=O)(=O)C(F)(F)C(F)(F)C(F)(F)C(F)(F)F)C(F)(F)C(F)(F)C(F)(F)C(F)(F)F [Example 10A]
value_measured: 359.4 °C

molecule: CCCCCCCCCCCCCCCCCC[n+]1ccn(CCCC)c1.O=S1(=O)[N-]S(=O)(=O)C(F)(F)C(F)(F)C1(F)F [Comparative Example 2A, reference compound]
value_measured: 367.0 °C

molecule: CCCCCCCCCCCCCCCCCCn1ccnc1CCCCCCCCCCCCCCCCC.O=S1(=O)NS(=O)(=O)C(F)(F)C(F)(F)C1(F)F [Comparative Example 7A, reference compound]
value_measured: 366.4 °C

molecule: CCCCCCCCCCCCCCCCCC[n+]1ccn(CCCO)c1.O=S(=O)([N-]S(=O)(=O)C(F)(F)C(F)(F)C(F)(F)C(F)(F)F)C(F)(F)C(F)(F)C(F)(F)C(F)(F)F
value_measured: 361.7 °C

molecule: CCCCCCCCCCCCCCCCCC[N+]1(CCCO)CCCC1.O=S(=O)([N-]S(=O)(=O)C(F)(F)C(F)(F)C(F)(F)C(F)(F)F)C(F)(F)C(F)(F)C(F)(F)C(F)(F)F
value_measured: 370.8 °C
